// provenance: patent US11992558B2

assay.protocol: Flow properties of drug powder
Assay type: physicochemical
quantity.measured: tapped density (g/mL)

[
  {
    "compound": "Cc1c(-c2ccccc2)oc2c(C(=O)OCCN3CCCCC3)cccc2c1=O.Cl [flavoxate]",
    "quantity.measured": "tapped density",
    "value.unit": "g/mL",
    "val": 0.355
  }
]

* * *

assay.protocol: pH-dependent aqueous solubility at ambient temperature
Type: physicochemical
test.context: 20 °C, aqueous buffer; 0.05N Phosphate Buffer, pH 6.8, 20 to 25° C.

[
  {
    "compound": "Cc1c(-c2ccccc2)oc2c(C(=O)OCCN3CCCCC3)cccc2c1=O.Cl [flavoxate]",
    "value.unit": "µg/mL",
    "solubility": 6170
  }
]
